// provenance: BigSolDB 2.1

# CONDITION_INFO: in n-propanol, 308.15 K
MEASURED_PROPERTY: solubility (mole fraction)
Give the figure by itself; no unit, no explanation.

[ask] What measured solubility (mole fraction) goes with "c1ccc2[nH]c(-c3cscn3)nc2c1" ?
[reply] 0.00252

====

# CONDITION_INFO: in methanol, 303.15 K
MEASURED_PROPERTY: solubility (mole fraction)
Respond using a number only.

[ask] So what's the measured solubility (mole fraction) for this one? "c1ccc2[nH]c(-c3cscn3)nc2c1"
[reply] 0.002

====

# CONDITION_INFO: in isopropanol, 303.15 K
MEASURED_PROPERTY: solubility (mole fraction)
The response must contain the number and no unit.

[ask] Any idea what solubility (mole fraction) was measured for "c1ccc2[nH]c(-c3cscn3)nc2c1" ?
[reply] 0.00121

====

# CONDITION_INFO: in isopropanol, 283.15 K
MEASURED_PROPERTY: solubility (mole fraction)

[ask] // returns reported solubility (mole fraction) for input "c1ccc2[nH]c(-c3cscn3)nc2c1"
[reply] 0.000682

====

# CONDITION_INFO: in n-propanol, 298.15 K
MEASURED_PROPERTY: solubility (mole fraction)

[ask] GET /values?readout=solubility (mole fraction)&item= "c1ccc2[nH]c(-c3cscn3)nc2c1"
[reply] 0.002

====

# CONDITION_INFO: in water, 298.15 K
MEASURED_PROPERTY: solubility (mole fraction)
I only need the number, thanks.

[ask] # solubility (mole fraction) lookup, item "c1ccc2[nH]c(-c3cscn3)nc2c1"
[reply] 4.23e-07

====

# CONDITION_INFO: in n-propanol, 323.15 K
MEASURED_PROPERTY: solubility (mole fraction)
Please give the numeric answer without any surrounding text.

[ask] Which solubility (mole fraction) is reported for this molecule? "c1ccc2[nH]c(-c3cscn3)nc2c1"
[reply] 0.00347

====

# CONDITION_INFO: in methanol, 283.15 K
MEASURED_PROPERTY: solubility (mole fraction)

[ask] GET /values?readout=solubility (mole fraction)&item= "c1ccc2[nH]c(-c3cscn3)nc2c1"
[reply] 0.0013

====

# CONDITION_INFO: in n-propanol, 293.15 K
MEASURED_PROPERTY: solubility (mole fraction)
No unit in the answer, only the number.

[ask] # solubility (mole fraction) lookup, item "c1ccc2[nH]c(-c3cscn3)nc2c1"
[reply] 0.00177

====

# CONDITION_INFO: in isopropanol, 318.15 K
MEASURED_PROPERTY: solubility (mole fraction)
Lab note: write the figure by itself, no unit.

[ask] Please give the measured solubility (mole fraction) for this molecule: "c1ccc2[nH]c(-c3cscn3)nc2c1"
[reply] 0.00174

====

# CONDITION_INFO: in water, 293.15 K
MEASURED_PROPERTY: solubility (mole fraction)
// response body must contain only the number

[ask] Item under review: "c1ccc2[nH]c(-c3cscn3)nc2c1" . Reported solubility (mole fraction)?
[reply] 3.42e-07

====

# CONDITION_INFO: in isopropanol, 298.15 K
MEASURED_PROPERTY: solubility (mole fraction)
Quick one: just the number, no unit, thanks!

[ask] Endpoint output: solubility (mole fraction) of "c1ccc2[nH]c(-c3cscn3)nc2c1" . Value?
[reply] 0.00103
